These measurements were taken from paper PMC10027976.

- Tested on: MSSA ATCC 25923
- ASSAY EXPLANATION: MIC by micro broth-dilution method
- Format: cell-based, Staphylococcus aureus
- TEST CONDITIONS: micro broth-dilution, Mueller Hinton Broth, 2 × 10^5 CFU/mL mixed 1:1 with lantibiotic, BSA-treated 96-well plates, overnight 37 °C, lowest concentration with no visible growth; Rosα (variant) with wild-type Rosβ
Where no end group is shown, it is not given here.
ASSAY READOUT: MIC against MSSA ATCC 25923 (µM)
Value expressed in µM; do not type the unit.

Worked cases, answers included:
>>> measured_value("INGAGSGVLGTLGCCSCLPWYSGWTVCGLACNPGKPCKN (also: bicyclic or more (positions not given here)) [Roseocin (wild-type)]")
2
>>> measured_value("NGAGSGVLGTFGCCSCLPWYSGWTVCGLACNPGKPCKN (also: bicyclic or more (positions not given here)) [Roseocin L8F, Rosα variant L8F, modified by RosM, tested in combination with wild-type Rosβ]")
0.5

Shift focus to the following entry.
What does the data say about its MIC against MSSA ATCC 25923? Entry: GAGSGVLGTWGCCSCLPWYSGWTVCGLACNPGKPCKN (also: bicyclic or more (positions not given here)) [Roseocin L8W, Rosα variant L8W, modified by RosM, tested in combination with wild-type Rosβ] 2
